Listed below: kon values for each entry.
# tested.system: Human GlyT1 (human) (UniProt P48067)
# Sequence (P48067 whole entry): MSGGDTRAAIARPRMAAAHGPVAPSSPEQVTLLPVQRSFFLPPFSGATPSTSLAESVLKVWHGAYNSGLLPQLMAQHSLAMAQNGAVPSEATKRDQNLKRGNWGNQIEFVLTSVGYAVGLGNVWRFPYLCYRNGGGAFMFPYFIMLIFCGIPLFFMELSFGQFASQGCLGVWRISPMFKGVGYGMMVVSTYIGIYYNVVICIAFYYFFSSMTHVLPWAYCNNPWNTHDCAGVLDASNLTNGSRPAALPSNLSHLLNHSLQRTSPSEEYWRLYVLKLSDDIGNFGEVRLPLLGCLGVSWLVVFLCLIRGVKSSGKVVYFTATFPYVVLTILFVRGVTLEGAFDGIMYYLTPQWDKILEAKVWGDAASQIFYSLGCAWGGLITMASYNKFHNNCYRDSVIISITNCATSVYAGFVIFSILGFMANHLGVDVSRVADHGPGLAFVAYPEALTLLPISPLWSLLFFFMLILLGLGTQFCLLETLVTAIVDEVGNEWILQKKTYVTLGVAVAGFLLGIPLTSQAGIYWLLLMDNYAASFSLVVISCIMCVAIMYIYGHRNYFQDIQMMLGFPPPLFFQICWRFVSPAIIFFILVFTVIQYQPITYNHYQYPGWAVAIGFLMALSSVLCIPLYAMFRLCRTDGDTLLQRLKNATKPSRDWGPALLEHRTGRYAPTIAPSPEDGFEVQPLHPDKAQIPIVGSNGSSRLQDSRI
# experiment.description: SPR; Biacore T200, 18°C; biotinylated GlyT1 (about 300 RU) on SA sensor, sybody up to 2 µM as analyte; 20 mM Citrate pH 6.4, 150 mM NaCl, 0.004% LMNG; 50 µl/min; 1:1 model; single cycle for Sb_GlyT1#6; KD from kinetics or from equilibrium as the column says
experimental.readout: kon (M⁻¹ s⁻¹)

binder	reported
Sb_GlyT1#7 (VHH) VHH: QVQLVESGGGLVQAGGSLRLSCAASGFPVYAYEMYWYRQAPGKEREWVAAISSSGTWAGYADSVKGRFTISRDNAKNTVYLQMNSLKPEDTAVYYCNVKDWGASWAYYDYWGQGTQVTVS	20100
Sb_GlyT1#5 (VHH) VHH: QVQLVESGGGLVQAGGSLRLSCAASGFPVMNRWMAWYRQAPGKEREWVAAVASYGETTRYADSVKGRFTISRDNAKNTVYLQMNSLKPEDTAVYYCNVKDWGWWTRAYDYWGQGTQVTVS	454000
Sb_GlyT1#2 (VHH) VHH: QVQLVESGGGLVQAGGSLRLSCAASGFPVYHRSMLWYRQAPGKEREWVAAIKSNGAGTWYADSVKGRFTISRDNAKNTVYLQMNSLKPEDTAVYYCTVGVGTNYWGQGTQVTVS	36800
Sb_GlyT1#1 (VHH) VHH: QVQLVESGGGLVQAGGSLRLSCAASGFPVYYSHMLWYRQAPGKEREWVAAIKSLGAKTWYADSVKGRFTISRDNAKNTVYLQMNSLKPEDTAVYYCTVGVGTNYYGQGTQVTVS	188000
Sb_GlyT1#6 (VHH) VHH: QVQLVESGGGLVQAGGSLRLSCAASGFPVVYYEMYWYRQAPGKEREWVAAITSSGWYTHYADSVKGRFTISRDNAKNTVYLQMNSLKPEDTAVYYCNVKDWGASWKQYDYWGQGTQVTVS	100000
